- STUDY TARGET: BRAF V600E (Homo sapiens, UniProt P15056, V600E)
- Construct: endogenous C-terminal HiBiT fusion tag on BRAF V600E allele; endogenous in cells; host or cells: A375 clone 1F10 (CRISPR-Cas9 knock-in of the HiBiT tag; parental A375 from ATCC)
- Sequence (P15056 whole entry V600E, the tested form may be a part): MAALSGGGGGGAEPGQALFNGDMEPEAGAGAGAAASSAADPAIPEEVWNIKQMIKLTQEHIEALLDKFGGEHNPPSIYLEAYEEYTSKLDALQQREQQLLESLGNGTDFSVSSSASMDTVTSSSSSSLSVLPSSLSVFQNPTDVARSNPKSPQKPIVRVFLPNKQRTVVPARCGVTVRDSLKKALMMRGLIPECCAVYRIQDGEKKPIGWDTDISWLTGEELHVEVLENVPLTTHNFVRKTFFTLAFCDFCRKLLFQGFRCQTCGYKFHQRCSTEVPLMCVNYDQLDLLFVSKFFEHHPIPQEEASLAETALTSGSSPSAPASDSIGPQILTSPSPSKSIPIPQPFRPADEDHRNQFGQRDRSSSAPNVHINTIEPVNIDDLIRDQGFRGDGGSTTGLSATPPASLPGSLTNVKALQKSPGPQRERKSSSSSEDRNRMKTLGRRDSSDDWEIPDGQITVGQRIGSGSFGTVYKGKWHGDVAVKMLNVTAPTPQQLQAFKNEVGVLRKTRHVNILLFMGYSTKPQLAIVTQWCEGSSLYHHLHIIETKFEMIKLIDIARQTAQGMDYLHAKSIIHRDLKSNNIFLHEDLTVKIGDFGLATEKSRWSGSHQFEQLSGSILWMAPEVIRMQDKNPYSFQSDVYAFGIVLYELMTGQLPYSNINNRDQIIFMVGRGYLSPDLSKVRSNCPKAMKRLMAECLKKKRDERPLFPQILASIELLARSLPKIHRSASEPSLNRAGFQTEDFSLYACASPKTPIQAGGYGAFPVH
- METHOD DESCRIPTION: BRAF HiBiT degradation assay, C-terminal HiBiT-tagged BRAF V600E A375 cells (clone 1F10), Nano-Glo HiBiT Lytic assay
- Assay type: cell-based
- CONDITION PARAMETERS: A375 (BRAF V600E, Class 1); DC50 at 50% degradation
Recorded measurements of DC50, one per entry

Some compounds with known DC50 results, for comparison:
compound="CCN(C)S(=O)(=O)Nc1cc(Cl)cc(-c2cn(-c3ccc(N4CCN(CC5CCN(c6ccc(N7CCC(=O)NC7=O)cn6)CC5)CC4)cn3)nc2-c2ccncc2)c1F [Compound 313]" readout=DC50 reading="10 to 50 nM"
compound="O=C1CC[C@H](c2ccc(N3CCC(CN4CCN(c5ccc(-n6cc(-c7cc(C(F)F)cc(NS(=O)(=O)N8CCCC8)c7F)c(-c7ccncc7)n6)c(F)c5)CC4)CC3)cc2)C(=O)N1 [Compound 362]" readout=DC50 reading="< 10 nM"
compound="O=C1CCC(c2ccc(N3CCC(CN4CCN(c5ccc(-n6cc(-c7cc(Cl)cc(NS(=O)(=O)N8CCCC8)c7F)c(-c7ccncc7)n6)cc5)CC4)CC3)cc2F)C(=O)N1 (racemic) [Compound 348]" readout=DC50 reading="< 10 nM"
compound="CCN(C)S(=O)(=O)Nc1cc(Cl)cc(-c2cn(-c3ccc(N4CCN(CC5CCN(c6ccc([C@H]7CCC(=O)NC7=O)cn6)CC5)CC4)cn3)nc2-c2ccncc2)c1F [Compound 314]" readout=DC50 reading="< 10 nM"

QUERY: Item under review: O=C1CC[C@H](c2ccc(N3CCC(CN4CCN(c5ccc(-n6cc(-c7cc(Cl)cc(NS(=O)(=O)N8CC[C@@H](F)C8)c7F)c(-c7ccncc7)n6)c(F)c5)CC4)CC3)nc2)C(=O)N1 [Compound 334] . Reported DC50?
RESULT: < 10 nM

* * *

- STUDY TARGET: BRAF V600E (Homo sapiens, UniProt P15056, V600E)
- Construct: endogenous C-terminal HiBiT fusion tag on BRAF V600E allele; endogenous in cells; host or cells: A375 clone 1F10 (CRISPR-Cas9 knock-in of the HiBiT tag; parental A375 from ATCC)
- METHOD DESCRIPTION: BRAF HiBiT degradation assay, C-terminal HiBiT-tagged BRAF V600E A375 cells (clone 1F10), Nano-Glo HiBiT Lytic assay
- Assay type: cell-based
- CONDITION PARAMETERS: A375 (BRAF V600E, Class 1); DC50 at 50% degradation
READOUT: DC50

compound="CCC(C)S(=O)(=O)Nc1cc(Cl)cc(-c2cn(-c3ccc(N4CCN(CC5CCN(c6ccc(N7CCC(=O)NC7=O)cc6)CC5)CC4)cc3)nc2-c2ccncc2)c1F (racemic) [Compound 328]" reading="< 10 nM"
compound="CCC(C)S(=O)(=O)Nc1cc(Cl)cc(-c2cn(-c3ccc(N4CCN(CC5CCN(c6ccc([C@H]7CCC(=O)NC7=O)cc6)CC5)CC4)cc3)nc2-c2ccncc2)c1F (mixture of isomers) [Compound 330]" reading="< 10 nM"
compound="CCCS(=O)(=O)Nc1cccc(-c2nc(C3CCC4(CC3)CCN(C(=O)C3CCN(c5ccc(C6CCC(=O)NC6=O)cn5)CC3)CC4)sc2-c2ccnc(N)n2)c1F (racemic) [Compound 246]" reading="10 to 50 nM"

QUERY: Item under review: CCCS(=O)(=O)Nc1cccc(-c2nc(C3(C)CCN(C(=O)CC4CCN(C5CCN(c6ccc7c(c6)C(=O)N(C6CCC(=O)NC6=O)C7=O)CC5)CC4)CC3)sc2-c2ccnc(N)n2)c1F (racemic) [Compound 249] . Reported DC50?
RESULT: 50 to 500 nM

QUERY: Item under review: O=C1CCC(c2ccc(N3CCC(CN4CCN(c5ccc(-n6cc(-c7cc(Cl)cc(NS(=O)(=O)N8CCCC8)c7F)c(-c7ccncc7)n6)cc5)CC4)CC3)c(F)c2)C(=O)N1 (racemic) [Compound 347] . Reported DC50?
RESULT: < 10 nM

* * *

Recorded measurements of DC50, one per entry
- STUDY TARGET: BRAF D594G (Homo sapiens, UniProt P15056, D594G)
- Construct: Horizon Discovery (HCT-116 BRAF−/− cells); host or cells: HCT-116 BRAF−/− cells, clone 63, lentiviral transduction
- Sequence (P15056 whole entry D594G): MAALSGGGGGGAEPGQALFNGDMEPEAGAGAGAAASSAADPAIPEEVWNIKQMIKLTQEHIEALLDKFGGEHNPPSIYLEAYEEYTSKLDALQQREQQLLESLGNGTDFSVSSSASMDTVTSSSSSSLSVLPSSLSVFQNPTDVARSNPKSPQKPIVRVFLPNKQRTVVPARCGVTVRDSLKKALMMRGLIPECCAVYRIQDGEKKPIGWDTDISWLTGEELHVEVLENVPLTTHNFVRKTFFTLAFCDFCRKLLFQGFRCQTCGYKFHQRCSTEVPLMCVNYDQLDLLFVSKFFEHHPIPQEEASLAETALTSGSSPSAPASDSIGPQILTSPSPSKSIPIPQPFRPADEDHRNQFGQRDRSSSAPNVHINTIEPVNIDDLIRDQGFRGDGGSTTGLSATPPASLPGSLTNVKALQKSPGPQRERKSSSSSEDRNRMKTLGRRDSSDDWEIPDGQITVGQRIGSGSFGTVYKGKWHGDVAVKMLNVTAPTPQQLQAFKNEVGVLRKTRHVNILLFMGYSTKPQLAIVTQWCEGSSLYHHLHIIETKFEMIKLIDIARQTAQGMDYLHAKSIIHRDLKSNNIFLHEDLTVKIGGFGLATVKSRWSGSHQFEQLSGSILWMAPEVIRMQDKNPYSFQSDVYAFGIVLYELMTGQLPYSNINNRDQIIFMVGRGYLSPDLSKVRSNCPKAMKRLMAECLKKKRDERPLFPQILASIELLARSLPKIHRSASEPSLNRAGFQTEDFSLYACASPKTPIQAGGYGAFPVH
- METHOD DESCRIPTION: BRAF HiBiT degradation assay, C-terminal HiBiT-tagged BRAF D594G overexpressed in HCT-116 BRAF−/− cells (clone 63), Nano-Glo HiBiT Lytic assay
- Format: cell-based
- CONDITION PARAMETERS: BRAF D594G; DC50 at 50%: fitted conc. at Y=50

Some molecules with known DC50 results, for comparison:
molecule="CCCS(=O)(=O)Nc1cccc(-c2nc(C(C)(C)C)sc2-c2ccnc(Nc3ccc(C4CCN(CC5CCN(c6ccc(C(=O)NC7CCC(=O)NC7=O)cc6)CC5)CC4)cc3)n2)c1F (racemic)" reading="> 0.5 µM"
molecule="CCCS(=O)(=O)Nc1cccc(-c2nc(C3CCN(CC4CCN(C[C@H]5CC[C@H](Oc6ccc(C7CCC(=O)NC7=O)cc6)CC5)CC4)CC3)sc2-c2ccnc(N)n2)c1F (mixture of isomers)" reading="> 0.5 µM"
molecule="CCCS(=O)(=O)Nc1cccc(-c2nc(C(C)(C)C)sc2-c2ccnc(N[C@H]3CC[C@@H](N4CCN(CC5CCN(c6ccc(C7CCC(=O)NC7=O)cn6)CC5)CC4)CC3)n2)c1F (mixture of isomers)" reading="0.01 to 0.05 µM"
molecule="CCCS(=O)(=O)Nc1cccc(-c2nc(C(C)(C)C)sc2-c2ccnc(NC3CC4(CCN(C(=O)CN5CCC(c6ccc(NC7CCC(=O)NC7=O)cc6)CC5)CC4)C3)n2)c1F (racemic)" reading="> 0.5 µM"

Query molecule follows.
QUERY: Item under review: CCCS(=O)(=O)Nc1cccc(-c2nc(C(C)(C)C)sc2-c2ccnc(Nc3cnn(CC4CCN(C(=O)CN5CCc6cc(C7CCC(=O)NC7=O)ccc6C5)CC4)c3)n2)c1F (racemic) . Reported DC50?
RESULT: > 0.5 µM

* * *

Recorded measurements of Dmax, one per entry
- STUDY TARGET: BRAF G466V (Homo sapiens, UniProt P15056, G466V)
- Construct: Horizon Discovery (HCT-116 BRAF−/− cells); host or cells: HCT-116 BRAF−/− cells, clone 8, lentiviral transduction
- Sequence (P15056 whole entry G466V): as the sequence (P15056 whole entry D594G) above, with G466V, G594D counted along it
- METHOD DESCRIPTION: BRAF HiBiT degradation assay, C-terminal HiBiT-tagged BRAF G466V overexpressed in HCT-116 BRAF−/− cells (clone 8), Nano-Glo HiBiT Lytic assay
- Format: cell-based
- CONDITION PARAMETERS: BRAF G466V (Class 3), HCT-116 BRAF−/− cells; observed Dmax relative to DMSO control
- Experimental: An A375 cell line expressing a homozygous V600E mutation was purchased from ATCC (Manassas, VA, USA). […] HiBiT signal was measured by a Nano-Glo HiBiT Lytic assay (Promega cat. no. N3050). […] Luminesce units (LU) were read on an EnVision plate reader 2105 (Perkin Elmer). Percent protein remaining and viability remaining per sample were calculated as follows: […]

QUERY: Query for BRAF G466V (Homo sapiens, UniProt P15056, G466V): what Dmax does the record show for `CCCS(=O)(=O)Nc1cc(Cl)cc(-c2cn(-c3ccc(N4CCN(CC5CCN(c6ccc(N7CCC(=O)NC7=O)cc6)CC5)[C@@H](C)C4)cc3)nc2-c2ccncc2)c1F` ?
RESULT: 30 to 70%

QUERY: Query for BRAF G466V (Homo sapiens, UniProt P15056, G466V): what Dmax does the record show for `O=C1CCN(c2ccc(N3CCC(CN4CCN(c5ccc(-n6cc(-c7cc(Cl)cc(NS(=O)(=O)N8CC[C@@H](F)C8)c7F)c(-c7ccncc7)n6)cc5)CC4)CC3)cc2)C(=O)N1` ?
RESULT: 30 to 70%

QUERY: Query for BRAF G466V (Homo sapiens, UniProt P15056, G466V): what Dmax does the record show for O=C1CCC(c2ccc(N3CCC(CN4CCN(c5ccc(-n6cc(-c7cc(Cl)cc(NS(=O)(=O)N8CCCC8)c7F)c(-c7ccncc7)n6)cc5)CC4)CC3)nc2)C(=O)N1 (racemic) ?
RESULT: > 70%

QUERY: Query for BRAF G466V (Homo sapiens, UniProt P15056, G466V): what Dmax does the record show for `C[C@@H]1CN(c2ccc(-n3cc(-c4cc(Cl)cc(NS(=O)(=O)N5CCCC5)c4F)c(-c4ccncc4)n3)cc2)CCN1CC1CCN(c2ccc([C@H]3CCC(=O)NC3=O)cc2)CC1` ?
RESULT: > 70%

QUERY: Query for BRAF G466V (Homo sapiens, UniProt P15056, G466V): what Dmax does the record show for O=C1CCC(c2ccc(N3CCC(CN4CCN(c5cc(F)c(-n6cc(-c7cc(Cl)cc(NS(=O)(=O)N8CCCC8)c7F)c(-c7ccncc7)n6)cc5F)CC4)CC3)nc2)C(=O)N1 (racemic) ?
RESULT: > 70%
